- measurementParameters: in water, 303.03 K
metricName: solubility (mole fraction)
Please reply with the number alone, leaving off any unit.

Item `O=C(O)c1cccnc1` has what recorded solubility (mole fraction)? 0.00281

###

- measurementParameters: in ethanol, 322.64 K
metricName: solubility (mole fraction)
Please reply with the number alone, leaving off any unit.

Item `O=C(O)c1cccnc1` has what recorded solubility (mole fraction)? 0.00843

###

- measurementParameters: in acetone, 285.46 K
metricName: solubility (mole fraction)
Please reply with the number alone, leaving off any unit.

Item `O=C(O)c1cccnc1` has what recorded solubility (mole fraction)? 0.000733

###

- measurementParameters: in ethanol, 303.15 K
metricName: solubility (mole fraction)
Please reply with the number alone, leaving off any unit.

Item `O=C(O)c1cccnc1` has what recorded solubility (mole fraction)? 0.00423

###

- measurementParameters: in diethyl ether, 283.45 K
metricName: solubility (mole fraction)
Please reply with the number alone, leaving off any unit.

Item `O=C(O)c1cccnc1` has what recorded solubility (mole fraction)? 0.000322

###

- measurementParameters: in ethanol, 283.38 K
metricName: solubility (mole fraction)
Please reply with the number alone, leaving off any unit.

Item `O=C(O)c1cccnc1` has what recorded solubility (mole fraction)? 0.00224

###

- measurementParameters: in acetonitrile, 297.58 K
metricName: solubility (mole fraction)
Please reply with the number alone, leaving off any unit.

Item `O=C(O)c1cccnc1` has what recorded solubility (mole fraction)? 0.000185

###

- measurementParameters: in acetonitrile, 288.51 K
metricName: solubility (mole fraction)
Please reply with the number alone, leaving off any unit.

Item `O=C(O)c1cccnc1` has what recorded solubility (mole fraction)? 0.00012

###

- measurementParameters: in diethyl ether, 298.66 K
metricName: solubility (mole fraction)
Please reply with the number alone, leaving off any unit.

Item `O=C(O)c1cccnc1` has what recorded solubility (mole fraction)? 0.000813

###

- measurementParameters: in ethanol, 293.46 K
metricName: solubility (mole fraction)

Item `O=C(O)c1cccnc1` has what recorded solubility (mole fraction)? 0.00309

###

- measurementParameters: in acetone, 292.26 K
metricName: solubility (mole fraction)
Please reply with the number alone, leaving off any unit.

Item `O=C(O)c1cccnc1` has what recorded solubility (mole fraction)? 0.00114

###

- measurementParameters: in water, 316.21 K
metricName: solubility (mole fraction)
Please reply with the number alone, leaving off any unit.

Item `O=C(O)c1cccnc1` has what recorded solubility (mole fraction)? 0.00547

###

- measurementParameters: in acetonitrile, 322.45 K
metricName: solubility (mole fraction)
Please reply with the number alone, leaving off any unit.

Item `O=C(O)c1cccnc1` has what recorded solubility (mole fraction)? 0.000715

###

- measurementParameters: in water, 293.41 K
metricName: solubility (mole fraction)

Item `O=C(O)c1cccnc1` has what recorded solubility (mole fraction)? 0.00218

###

- measurementParameters: in ethanol, 312.83 K
metricName: solubility (mole fraction)
Please reply with the number alone, leaving off any unit.

Item `O=C(O)c1cccnc1` has what recorded solubility (mole fraction)? 0.00605

###

- measurementParameters: in acetonitrile, 306.91 K
metricName: solubility (mole fraction)
Please reply with the number alone, leaving off any unit.

Item `O=C(O)c1cccnc1` has what recorded solubility (mole fraction)? 0.000354

###

- measurementParameters: in DMSO, 332.36 K
metricName: solubility (mole fraction)
Please reply with the number alone, leaving off any unit.

Item `O=C(O)c1cccnc1` has what recorded solubility (mole fraction)? 0.131

###

- measurementParameters: in DMSO, 313.07 K
metricName: solubility (mole fraction)
Please reply with the number alone, leaving off any unit.

Item `O=C(O)c1cccnc1` has what recorded solubility (mole fraction)? 0.0911

###

- measurementParameters: in diethyl ether, 294.02 K
metricName: solubility (mole fraction)
Please reply with the number alone, leaving off any unit.

Item `O=C(O)c1cccnc1` has what recorded solubility (mole fraction)? 0.000618

###

- measurementParameters: in water, 312.97 K
metricName: solubility (mole fraction)
Please reply with the number alone, leaving off any unit.

Item `O=C(O)c1cccnc1` has what recorded solubility (mole fraction)? 0.00365

###

- measurementParameters: in acetonitrile, 283.3 K
metricName: solubility (mole fraction)
Please reply with the number alone, leaving off any unit.

Item `O=C(O)c1cccnc1` has what recorded solubility (mole fraction)? 7.12e-05

###

- measurementParameters: in acetonitrile, 293.01 K
metricName: solubility (mole fraction)
Please reply with the number alone, leaving off any unit.

Item `O=C(O)c1cccnc1` has what recorded solubility (mole fraction)? 0.00017

###

- measurementParameters: in water, 332.01 K
metricName: solubility (mole fraction)
Please reply with the number alone, leaving off any unit.

Item `O=C(O)c1cccnc1` has what recorded solubility (mole fraction)? 0.00586

###

- measurementParameters: in acetonitrile, 316.21 K
metricName: solubility (mole fraction)
Please reply with the number alone, leaving off any unit.

Item `O=C(O)c1cccnc1` has what recorded solubility (mole fraction)? 0.000547

###

- measurementParameters: in acetonitrile, 332.32 K
metricName: solubility (mole fraction)

Item `O=C(O)c1cccnc1` has what recorded solubility (mole fraction)? 0.00107

###

- measurementParameters: in water, 312.49 K
metricName: solubility (mole fraction)
Please reply with the number alone, leaving off any unit.

Item `O=C(O)c1cccnc1` has what recorded solubility (mole fraction)? 0.00475
